// provenance: patent US20180244785A1

Entries and their measured kon follow.
Target: T1, soluble FGFR3c receptor protein (human, UniProt P22607 141-372)
T1 sequence: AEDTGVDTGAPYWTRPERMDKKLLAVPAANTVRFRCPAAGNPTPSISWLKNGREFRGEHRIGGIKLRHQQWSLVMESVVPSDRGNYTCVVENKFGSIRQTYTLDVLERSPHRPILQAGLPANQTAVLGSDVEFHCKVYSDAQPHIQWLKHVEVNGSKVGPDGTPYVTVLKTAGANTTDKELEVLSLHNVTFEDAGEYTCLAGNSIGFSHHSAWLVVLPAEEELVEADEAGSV
Assay: BLI Octet RED96, antibody on anti-hIgG Fc tip

[
  {
    "binder": "Vh1 combined with the VL of Ab15 (antibody, V domains shown, captured on anti-human IgG Fc tips) VH: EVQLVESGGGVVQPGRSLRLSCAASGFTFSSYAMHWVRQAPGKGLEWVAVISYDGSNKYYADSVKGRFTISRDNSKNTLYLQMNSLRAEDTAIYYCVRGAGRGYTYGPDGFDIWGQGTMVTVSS VL: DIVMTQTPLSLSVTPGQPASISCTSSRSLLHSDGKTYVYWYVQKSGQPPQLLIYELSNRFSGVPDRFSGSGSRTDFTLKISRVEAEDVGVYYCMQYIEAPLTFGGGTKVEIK",
    "kon": "117000 M⁻¹ s⁻¹"
  },
  {
    "binder": "Vk6 combined with the VH of Ab15 (antibody, V domains shown, captured on anti-human IgG Fc tips) VH: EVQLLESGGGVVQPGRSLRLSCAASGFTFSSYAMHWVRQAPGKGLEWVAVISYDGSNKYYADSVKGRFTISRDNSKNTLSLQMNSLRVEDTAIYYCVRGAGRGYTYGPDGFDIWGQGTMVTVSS VL: DIVMTQTPLSLSVTPGQPASISCKSSQSLLHSDGKTYLYWYLQKPGQPPQLLIYELSNRFSGVPDRFSGSGSGTDFTLKISRVEAEDVGVYYCMQYIEAPLTFGGGTKVEIK",
    "kon": "121000 M⁻¹ s⁻¹"
  },
  {
    "binder": "Vk7 combined with the VH of Ab15 (antibody, V domains shown, captured on anti-human IgG Fc tips) VH: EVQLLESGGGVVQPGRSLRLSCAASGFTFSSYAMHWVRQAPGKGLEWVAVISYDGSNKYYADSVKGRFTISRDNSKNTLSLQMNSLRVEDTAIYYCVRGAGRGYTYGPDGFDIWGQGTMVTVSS VL: DIVMTQSPLSLPVTPGEPASISCKSSQSLLHSDGKTYLYWYLQKPGQPPQLLIYELSNRFSGVPDRFSGSGSGTDFTLKISRVEAEDVGVYYCMQYIEAPLTFGGGTKVEIK",
    "kon": "120000 M⁻¹ s⁻¹"
  }
]
